Recorded values, source patent US12102648B2.

test: in vitro; format: in vitro ADME; details: human, Caco-2
endpointLabel: Papp B→A at 90 min (×10⁻⁶ cm/s)
Numbers only, in ×10⁻⁶ cm/s.

Reference set (6 entries):
{"compoundStructure": "CNc1nc(N)nc2c1ncn2[C@@H]1O[C@H](COC(=O)CC(C)C)[C@@H](OC(=O)CC(C)C)[C@@]1(C)F", "Papp B→A at 90 min, ×10⁻⁶ cm/s": 6.5}
{"compoundStructure": "N#C[C@@]1(c2ccc3c(N)ncnn23)O[C@H](COC(=O)CC2CCC(F)(F)CC2)[C@@H](O)[C@H]1O", "Papp B→A at 90 min, ×10⁻⁶ cm/s": 4.4}
{"compoundStructure": "CC(=O)OC[C@H]1O[C@@](C#N)(c2ccc3c(N)ncnn23)[C@H](O)[C@@H]1OC(=O)CC1CCCCC1", "Papp B→A at 90 min, ×10⁻⁶ cm/s": 0.76}
{"compoundStructure": "CCCCCOC(=O)Nc1ncnn2c([C@]3(C#N)O[C@H](CO)[C@@H](O)[C@H]3O)ccc12", "Papp B→A at 90 min, ×10⁻⁶ cm/s": 14.7}
{"compoundStructure": "CNc1nc(N)nc2c1ncn2[C@@H]1O[C@H](COC(C)=O)[C@@H](O)[C@@]1(C)F", "Papp B→A at 90 min, ×10⁻⁶ cm/s": 4.4}
{"compoundStructure": "COC1(CC(=O)OC[C@H]2O[C@@](C#N)(c3ccc4c(N)ncnn34)[C@H](O)[C@@H]2O)CCCCC1", "Papp B→A at 90 min, ×10⁻⁶ cm/s": 13}

State the recorded Papp B→A at 90 min for every item in the following list.
1. CC(C)CC(=O)O[C@H]1[C@@H](O)[C@](C#N)(c2ccc3c(N)ncnn23)O[C@@H]1COC(=O)CC1CCCCC1
2. CC(C)C(=O)OC[C@H]1O[C@@](C#N)(c2ccc3c(NC(=O)[C@@H](N)C(C)C)ncnn23)[C@H](O)[C@@H]1O
3. CCCCC(=O)Nc1ncnn2c([C@]3(C#N)O[C@H](COC(=O)C(C)C)[C@@H](O)[C@H]3O)ccc12
4. N#C[C@@]1(c2ccc3c(N)ncnn23)O[C@H](COC(=O)CC2CCCCC2)[C@@H](O)[C@H]1O

42
1.2
2.9
4.7

Count: 4. Required value per item: Papp B→A at 90 min.
1. CC(C)[C@H](N)C(=O)O[C@H]1[C@@H](O)[C@](C#N)(c2ccc3c(NC(=O)OCOC(=O)C(C)(C)C)ncnn23)O[C@@H]1COC(=O)CC1CCCCC1
2. CC(C)C(=O)O[C@H]1[C@@H](O)[C@](C#N)(c2ccc3c(N)ncnn23)O[C@@H]1COC(=O)CC1CCCCC1
3. CCC(=O)Nc1nc(NC)c2ncn([C@@H]3O[C@H](COC(C)=O)[C@@H](O)[C@@]3(C)F)c2n1
4. CCCC(=O)Nc1ncnn2c([C@]3(C#N)O[C@H](COC(=O)[C@@H](N)C(C)C)[C@@H](OC(=O)CC)[C@H]3O)ccc12

1: 0.05; 2: 7.1; 3: 7; 4: 6

Return reported Papp B→A at 90 min values for all items listed beneath this line.
1. CC(C)[C@H](N)C(=O)OC[C@H]1O[C@@](C#N)(c2ccc3c(N)ncnn23)[C@H](O)[C@@H]1O
2. CNc1nc(N)nc2c1ncn2[C@@H]1O[C@H](COC(=O)C(C)C)[C@@H](OC(=O)C(C)C)[C@@]1(C)F

1: 0.1; 2: 3.2
